# PROCEDURE_SUMMARY: in vitro
# APPLIED_CONDITIONS: African green monkey, uninfected quiescent Vero-B cells
QUANTITY_KIND: CC50 at 4 days (µM)
Expressed in µM, but write only the number.

Known results for compounds:
1) COc1cc(NC(C(=O)c2c[nH]c3ccccc23)c2ccccc2)ccc1F (centres unmarked) [CPD-356] : 13
2) O=C(c1c[nH]c2ccccc12)C(NC1CCOc2ccccc21)c1ccccc1 (centres unmarked) [CPD-182] : 12
3) COc1cc(NC(C(=O)c2c[nH]c3cc(C#N)ccc23)c2ccccc2)ccn1 (centres unmarked) [CPD-093] : 87
4) COc1cccc(NC(C(=O)c2c[nH]c3ccccc23)c2cc(C)n(C)n2)c1 (centres unmarked) [CPD-267] : 79
5) COc1ccc(C(Nc2cncc(OC)n2)C(=O)c2c[nH]c3ccccc23)cn1 (centres unmarked) [CPD-284] : 74
6) COc1cc(NC(C(=O)c2c[nH]c3ccccc23)c2cn3c(F)cccc3n2)ccn1 (centres unmarked) [CPD-081] : 50
7) COc1cccc(NC(C(=O)c2c[nH]c3cnccc23)c2ccccc2)c1 (centres unmarked) [CPD-200] : 54
8) CNc1ncc(NC(C(=O)c2c[nH]c3ccccc23)c2ccccc2)cc1OC (centres unmarked) [CPD-261] : 15
9) COc1cccc(NC(C(=O)c2c[nH]c3ccccc23)c2ccc(C#N)c(F)c2)c1 (centres unmarked) [CPD-132] : 12
10) O=C(c1c[nH]c2ccccc12)C(NC1CCSc2ccccc21)c1ccccc1 (centres unmarked) [CPD-191] : 13

# compound CNC(=O)c1cccc(NC(C(=O)c2c[nH]c3ccccc23)c2ccccc2)c1 (centres unmarked) [CPD-170] ; its CC50 at 4 days = 26

# compound COc1cc(CO)cc(NC(C(=O)c2c[nH]c3cc(F)ccc23)c2ccccc2)c1 (centres unmarked) [CPD-285] ; its CC50 at 4 days = 50

# compound COc1cccc(NC(C(=O)c2c[nH]c3cccnc23)c2ccccc2)c1 (centres unmarked) [CPD-195] ; its CC50 at 4 days = 65

====

# PROCEDURE_SUMMARY: in vitro
# APPLIED_CONDITIONS: African green monkey, uninfected quiescent Vero-B cells
QUANTITY_KIND: CC50 at 4 days

1. COc1cc(NC(C(=O)c2c[nH]c3ccccc23)c2cc3ccccn3n2)cc(OCCO)c1 (stereo not drawn) : > 123 µM
2. COc1cccc(NC(C(=O)c2cnn3ccccc23)c2ccccc2)c1 (stereo not drawn) : > 139 µM

# compound COc1cccc(NC(C(=O)c2c[nH]c3ccccc23)c2cn3ccc(C)cc3n2)c1 (stereo not drawn) ; its CC50 at 4 days = > 121 µM

# compound COc1cc(CO)cc(NC(C(=O)c2cn(C)c3ccccc23)c2ccccc2)c1 (stereo not drawn) ; its CC50 at 4 days = > 124 µM

# compound COc1cccc(NC(C(=O)c2c[nH]c3ccccc23)c2ncc[nH]2)c1 (stereo not drawn) ; its CC50 at 4 days = > 144 µM

# compound COc1cc(NC(C(=O)c2nn(C)c3ccccc23)c2ccccc2)cc(OCCO)c1 (stereo not drawn) ; its CC50 at 4 days = > 116 µM

# compound COc1cccc(NC(C(=O)c2c[nH]c3ccc(S(=O)(=O)N(C)C)cc23)c2ccccc2)c1 (stereo not drawn) ; its CC50 at 4 days = > 108 µM

# compound COc1cccc(NC(C(=O)c2c[nH]c3c(Cl)cccc23)c2ccccc2)c1 (stereo not drawn) ; its CC50 at 4 days = > 127 µM

# compound COc1cc(CO)cc(NC(C(=O)c2c[nH]c3ccccc23)c2ccc(C)nc2)c1 (stereo not drawn) ; its CC50 at 4 days = > 124 µM

# compound COc1ccnc(NC(C(=O)c2c[nH]c3ccccc23)c2ccccc2)n1 (stereo not drawn) ; its CC50 at 4 days = > 139 µM

# compound COc1cc(C)nc(NC(C(=O)c2c[nH]c3ccccc23)c2ccccc2)n1 (stereo not drawn) ; its CC50 at 4 days = > 134 µM

# compound COc1cccc(NC(C(=O)c2c[nH]c3ccccc23)c2cn3ccccc3n2)c1 (stereo not drawn) ; its CC50 at 4 days = > 126 µM
